Test system: NCI-H460 lung
Assay: NCI tumour cell line growth inhibition, 48 h
OBSERVATION TYPE: TGI (µM)
The response must be a number in µM with no trailing unit.

The examples below pair each entry with its known result.
C/C(=N/NC(=S)N1CC2CCC(CC2)C1)c1cnccn1
0.273
C/C1=C/C[C@@H](/C(C)=C/c2csc(C)n2)OC(=O)C[C@H](O)C(C)(C)C(=O)[C@H](C)[C@@H](O)[C@@H](C)CCC1
0.23
C/C(=N\O)c1cccc(Nc2cc(-c3ccccc3)nc3c(O)cccc23)c1
17.2
COC1=CC(=O)c2c(cc3c(c2O)-c2c(OC)cc4cc5c(c(O)c4c2OC(=O)CC(C)(O)C3)C(=O)CC(C)(O)C5)C1=O (centres undefined)
5.24
O=C1/C(=C/c2ccc(Cl)cc2)N=C(c2ccccc2)N1/N=C/c1ccccc1O
79.2

Query compound follows.
Entry "COc1ccc(/C=C/C(=O)c2ccc(Nc3nc(Nc4ccc(F)cc4)nc(Nc4ccc(Cl)cc4)n3)cc2)cc1" , TGI reported as 84.3

###

System: ACHN renal
Test: NCI tumour cell line growth inhibition, 48 h
Listed molecules paired with reported TGI

The examples below pair each entry with its known result.
Cc1ccc(NC(=O)/C(=N\NC(N)=S)C(C#N)c2ccccc2C)cc1C (centres undefined)
> 100 µM
O=C1/C(=C/c2ccc(Cl)cc2)N=C(c2ccccc2)N1/N=C/c1ccccc1O
21.2 µM
Cc1cnc2c(c1)C(=O)N(c1ccc([N+](=O)[O-])cc1)S2(=O)=O
> 100 µM
COc1cc(C2C(C(=O)O)=C(COC(C)=O)Oc3cc4c(cc32)OCO4)cc(OC)c1OC(C)=O (centres undefined)
> 100 µM
Cc1c2ccccc2c(C2C3C(=O)N(c4cccc5ccccc45)C(=O)C3ON2Cc2ccc(CC(N)=O)cc2)c2ccccc12 (centres undefined)
> 50 µM

Entry Cc1ccc(SCC(CF)OC(C)n2cnc3c(Cl)nc(N)nc32)cc1 (centres undefined) , TGI reported as > 100 µM

Entry "CCC(C)(C)[C@H](NC(=O)[C@H]1CCCCN1C)C(=O)N(C)[C@H](C[C@@H](OC(C)=O)c1nc(C(=O)N[C@@H](Cc2ccccc2)C[C@H](C)C(=O)O)cs1)C(C)C" , TGI reported as > 16.7 µM

Entry "O=[N+]([O-])c1ccc(CN=C2NNS(=O)(=O)c3ccccc32)cc1" , TGI reported as > 100 µM

Entry "O=C1NC(=O)C(c2ccccc2)=C1Nc1ccccc1" , TGI reported as > 25 µM

###

Test system: A549 NSCLC
Experiment: NCI tumour cell line growth inhibition, 48 h
Listed compounds paired with reported TGI

O=C(CCN1CCC(CCO)CC1)Nc1ccc2c(c1)C(=O)c1ccc(NC(=O)CCN3CCC(CCO)CC3)cc1C2=O
> 100 µM
COc1ncc(-c2ccc3nccc(C#CCN4CCN(S(C)(=O)=O)CC4)c3c2)cc1NS(=O)(=O)c1ccc(F)cc1F
7.68 µM
O=C(Cc1ccccc1)N/N=C(/c1nc2ccc([N+](=O)[O-])cc2[nH]c1=O)C(O)c1ccc(C(O)/C(=N/NC(=O)Cc2ccccc2)c2nc3ccc([N+](=O)[O-])cc3[nH]c2=O)cc1 (centres undefined)
> 100 µM
CCOC(=O)C1(C#N)C(C#N)(C#N)C1(C#N)C#N
> 100 µM
CS(=N)(=O)CCC(N)P(=O)(O)O (centres undefined)
> 100 µM
S=C(Nc1ccc2c(c1)oc1ccccc12)c1cccs1
> 100 µM

Entry "CCc1ccc(Nc2cc(=O)n(C)c(SCc3ccccc3)n2)cc1" under A549 NSCLC had TGI of > 100 µM

Entry "CCc1nc2ccccc2c(=O)n1/N=C(\N=Nc1ccc(Cl)cc1)c1ccccc1" under A549 NSCLC had TGI of 98.7 µM

Entry COc1ccc(NS(=O)c2c(C)cc(C)cc2C)cc1 (centres undefined) under A549 NSCLC had TGI of > 100 µM

###

Tested on: HT29 colon
Assay: NCI tumour cell line growth inhibition, 48 h
OBSERVATION TYPE: TGI

The examples below pair each entry with its known result.
COc1cc2c(cc1O)Cc1c-2[n+](C)cc2cc(OC)c(OC)cc12
> 100 µM
CN1CCN(c2ccc3[nH]c(C4=C(O)C(=O)[C@@H]5C(=C4O)N=C(CO)N5C)nc3n2)CC1
> 100 µM
CCc1cccc(CC)c1NC(=O)CC1SC(N)=NC1=O (stereo not given)
> 100 µM
O=C(Cc1ccccc1)NN1C(=O)C(Cl)C1c1cccc([N+](=O)[O-])c1 (stereo not given)
> 20 µM

Query compound follows.
Entry "CCCOc1ccc(/C=N/Nc2cc(C)nc3ccc(Cl)cc23)cc1" , TGI reported as 3.49 µM

###

Listed molecules paired with reported TGI
System: SF-295 CNS
Experiment: NCI tumour cell line growth inhibition, 48 h

CC1=NC=C(O)c2ccccc2O1
> 100 µM
CC(Cc1cccc2c1Nc1ccccc1S2)N(C)CCO (stereo not given)
> 100 µM
O=C(N/C=C/C=C/Sc1ccccc1)OCc1ccccc1
35.4 µM
NC(CO)c1ccc(OCc2ccccc2)cc1 (stereo not given)
> 100 µM
O=[N+]([O-])c1ccc(CN=C2NNS(=O)(=O)c3ccccc32)cc1
> 100 µM

Entry "Cc1c(-c2nc(N)c(C#N)c(N)c2C#N)c(=O)oc2ccccc12" , TGI reported as > 100 µM

Entry Nc1nc(Br)nc2ncn(C3CC(O)C(CO)O3)c12 (stereo not given) , TGI reported as > 100 µM

Entry "C/C1=C/C[C@@H](/C(C)=C/c2csc(C)n2)OC(=O)C[C@H](O)C(C)(C)C(=O)[C@H](C)[C@@H](O)[C@@H](C)CCC1" , TGI reported as < 0.0001 µM

Entry COC1=CC(=O)c2c(cc3c(c2O)-c2c(OC)cc4cc5c(c(O)c4c2OC(=O)CC(C)(O)C3)C(=O)CC(C)(O)C5)C1=O (stereo not given) , TGI reported as 3.48 µM

Entry "CCOC(=O)Nc1ccc2c(c1)N(C(=O)CCN(CC)CC)c1ccccc1S2" , TGI reported as 54.4 µM

###

Tested on: COLO 205 colon
Assay: NCI tumour cell line growth inhibition, 48 h
OBSERVATION TYPE: GI50

The examples below pair each entry with its known result.
COc1cc2c(cc1OCCCCn1c(-c3cccs3)nc3ccccc31)N=C[C@@H]1CCCN1C2=O
1.07 µM
O=C1c2cccnc2C(=O)c2c1c(C(=O)OCCc1ccccn1)c1ccccn21
1.45 µM
Cc1cc(C(O)(c2ccc(Nc3ccccc3)cc2)c2ccc(Nc3ccc(S(=O)(=O)O)cc3)cc2)ccc1N (stereo not given)
0.782 µM

Entry "COc1ncc(-c2ccc3nccc(C#CCN4CCN(S(C)(=O)=O)CC4)c3c2)cc1NS(=O)(=O)c1ccc(F)cc1F" under COLO 205 colon had GI50 of 0.0418 µM

Entry "O=c1[nH]c2ccccc2n2cc3ccccc3c12" under COLO 205 colon had GI50 of 4.52 µM

###

System: U251 CNS
Assay: NCI tumour cell line growth inhibition, 48 h
Listed compounds paired with reported TGI

CCCCN(CC)CCCCCCCCCCN1CCCc2cc(OC)ccc21
7.56 µM

Entry "CN(C)c1ccc(/C=c2\sc3nnc(-c4cccnc4)n3c2=O)cc1" , TGI reported as > 100 µM

Entry "CC[C@@H]1CC[C@@H]2[C@H](CC[C@]3(C)[C@@H](OC(C)=O)CC[C@@H]23)[C@H]1C(=O)OC" , TGI reported as 43.3 µM

Entry "O=c1[nH]c2ccccc2n2cc3ccccc3c12" , TGI reported as 13.4 µM

Entry COC1=CC(=O)c2c(cc3c(c2O)-c2c(OC)cc4cc5c(c(O)c4c2OC(=O)CC(C)(O)C3)C(=O)CC(C)(O)C5)C1=O (configuration not stated) , TGI reported as 9.92 µM

Entry Cc1ccc(SCC(CF)OC(C)n2cnc3c(Cl)nc(N)nc32)cc1 (configuration not stated) , TGI reported as > 100 µM

Entry Fc1ccc(C2SCc3nc4ccccc4n32)cc1F (configuration not stated) , TGI reported as > 100 µM

Entry "O=C(Nc1ccccc1)c1cccc([N+](=O)[O-])c1" , TGI reported as > 100 µM

Entry "O=C(O)c1cn(C2CC2)c2cc(N3CCN(C(=O)Nc4nc(-c5ccc(Br)cc5)cs4)CC3)c(F)cc2c1=O" , TGI reported as > 100 µM

Entry "C/C1=C/C[C@@H](/C(C)=C/c2csc(C)n2)OC(=O)C[C@H](O)C(C)(C)C(=O)[C@H](C)[C@@H](O)[C@@H](C)CCC1" , TGI reported as 0.169 µM

Entry "CCOC(=O)/C(=C/c1ccccc1Br)P(=O)(OCC)OCC" , TGI reported as 3.18 µM

Entry "CC(=O)Oc1c(Br)ccc2cc(C(Br)Br)c(C(=O)c3ccccc3)nc12" , TGI reported as 36.3 µM

Entry NC(CO)c1ccc(OCc2ccccc2)cc1 (configuration not stated) , TGI reported as > 100 µM
